Biological target: lipoxygenase
Test: Inhibition of lipoxygenase in an enzyme assay according to the method of Blackwell and Flower
Conditions: Table I, read-out: ED50 for inhibition of lipoxygenase
Structures can show the parent of a compound that is named as a salt.
quantity_name: IC50

Example cases with answers are listed next.
# compound, quantity_name, value_reported
rows = [
    ("CNC1=NN(c2cccc(C(F)(F)F)c2)CC1", "IC50", "~300 nM"),
    ("CCCCNC1=NN(c2cccc(C(F)(F)F)c2)CC1", "IC50", "< 300 nM"),
    ("CCCNC1=NN(c2cccc(C(F)(F)F)c2)CC1", "IC50", "< 300 nM"),
    ("FC(F)(F)c1cccc(N2CCC(NCc3ccccc3)=N2)c1 [Example 5, hydrochloride]", "IC50", "~300 nM"),
]

Now examine the next entry.
Prompt: Returns the measured IC50 for the input compound. Input: "CCNC1=NN(c2cccc(C(F)(F)F)c2)CC1"
Completion: ~700 nM
